Reference source for all entries: patent US20260242478A1

- Assay Target: Anti-CD28 Fab (SEQ ID NOs: 696, 697)
- Sequence (VH, as listed by the source, chain 1 of 2): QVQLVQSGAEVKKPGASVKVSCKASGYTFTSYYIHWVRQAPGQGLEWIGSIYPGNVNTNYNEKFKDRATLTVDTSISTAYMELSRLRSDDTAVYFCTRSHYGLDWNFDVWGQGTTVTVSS
- Sequence (VL, as listed by the source, chain 2 of 2): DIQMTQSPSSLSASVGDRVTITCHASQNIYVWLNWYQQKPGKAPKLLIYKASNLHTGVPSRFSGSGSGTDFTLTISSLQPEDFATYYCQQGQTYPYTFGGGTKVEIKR
- Experiment: phage binding ELISA; biotinylated Fab on neutravidin plate, clonal phage supernatant, anti-M13 HRP;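 further: clones picked after panning, added to wells pre-incubated with CD28 antigen or with blocking buffer only, no wash before phage addition, bound phage read after washing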
Measure Name: Anti-CD28 Fab (SEQ ID NOs: 696, 697) signal
One number for each entry.

Previously resolved entries follow.
[[record]]
binder = "YCDGHTEAYMSKCL (Tested as clonal phage supernatant) [Phage-1254]"
recorded_result = 0.88

[[record]]
binder = "YCEGHSQEYKAKCF (Tested as clonal phage supernatant) [Phage-1249]"
recorded_result = 0.9

[[record]]
binder = "YCEGHLSEYIGKCL (Tested as clonal phage supernatant) [Phage-1258]"
recorded_result = 0.87

[[record]]
binder = "YCEGHSSAYMAKCL (Tested as clonal phage supernatant) [Phage-1251]"
recorded_result = 0.9

[[record]]
binder = "YCDGHFTWYMAKCL (Tested as clonal phage supernatant) [Phage-1256]"
recorded_result = 0.87


Quick request: Anti-CD28 Fab (SEQ ID NOs: 696, 697) signal for each listed item, please.
1. YCDGHIAEYRSKCL (Tested as clonal phage supernatant) [Phage-1257]
2. YCEGHDWMYMEKCL (Tested as clonal phage supernatant) [Phage-1248]

1. 0.87
2. 0.91

Quick request: Anti-CD28 Fab (SEQ ID NOs: 696, 697) signal for each listed item, please.
1. YCEGHISEYMGKCL (Tested as clonal phage supernatant) [Phage-1255]
2. YCDGHTAQYMWKCL (Tested as clonal phage supernatant) [Phage-1259]
3. YCDGHSTLYMQKCL (Tested as clonal phage supernatant) [Phage-1253]
4. YCDGHLLMYMEKCL (Tested as clonal phage supernatant) [Phage-1247]
5. YCDGHVLMYLAKCL (Tested as clonal phage supernatant) [Phage-1250]
6. YCEGHLAAYMYKCL (Tested as clonal phage supernatant) [Phage-1252]

0.88
0.87
0.88
0.91
0.9
0.89
